- studySystem: Solute carrier organic anion transporter family member 1B3 (Homo sapiens, UniProt Q9NPD5)
- Sequence (Q9NPD5 whole entry): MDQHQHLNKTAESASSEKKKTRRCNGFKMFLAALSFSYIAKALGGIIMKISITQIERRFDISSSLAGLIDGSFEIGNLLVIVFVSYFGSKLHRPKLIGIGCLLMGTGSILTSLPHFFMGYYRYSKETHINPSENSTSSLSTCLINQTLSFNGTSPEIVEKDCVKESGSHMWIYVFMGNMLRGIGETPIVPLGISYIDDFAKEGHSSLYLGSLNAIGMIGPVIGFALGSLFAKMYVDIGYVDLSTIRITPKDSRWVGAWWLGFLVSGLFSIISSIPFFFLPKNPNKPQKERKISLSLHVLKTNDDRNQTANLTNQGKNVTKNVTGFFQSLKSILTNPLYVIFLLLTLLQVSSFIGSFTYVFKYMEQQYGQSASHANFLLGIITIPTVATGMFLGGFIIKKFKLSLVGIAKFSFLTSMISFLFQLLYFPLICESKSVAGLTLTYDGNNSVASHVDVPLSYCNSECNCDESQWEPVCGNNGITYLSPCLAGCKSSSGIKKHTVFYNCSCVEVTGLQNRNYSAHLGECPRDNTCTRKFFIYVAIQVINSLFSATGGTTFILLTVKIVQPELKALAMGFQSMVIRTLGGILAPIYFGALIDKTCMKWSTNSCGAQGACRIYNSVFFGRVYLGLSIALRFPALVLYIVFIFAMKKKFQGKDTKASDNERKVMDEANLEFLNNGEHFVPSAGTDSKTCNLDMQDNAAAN
- measurementSetup: chinese hamster, cho, 10 µM
// reported residual activity for each item listed
measuredAttribute: residual activity (%)

[[record]]
compound = "C[C@@H](CO)NC(=O)[C@@H]1C=C2c3cccc4[nH]cc(c34)C[C@H]2N(C)C1.O=C(O)/C=C\\C(=O)O [ERGONOVINE MALEATE]"
recordedmeasurement = 84.31

[[record]]
compound = "CCOc1ccc(Cc2nccc3cc(OCC)c(OCC)cc23)cc1OCC.Cl [ETHAVERINE HYDROCHLORIDE]"
recordedmeasurement = 156.2

[[record]]
compound = "CCCCCNC(=N)N/N=C/c1c[nH]c2ccc(OC)cc12.O=C(O)/C=C\\C(=O)O [TEGASEROD MALEATE]"
recordedmeasurement = 112.9

[[record]]
compound = "CN1CCOC(c2ccccc2)c2ccccc2C1 (stereo not given)"
recordedmeasurement = 100.9

[[record]]
compound = "CC(C)c1c(O)c(-c2cc3c(c(C(C)C)c2O)CC[C@H]2C(C)(C)CCC[C@]32C)cc2c1CC[C@H]1C(C)(C)CCC[C@]21C"
recordedmeasurement = 91.38

[[record]]
compound = "COC(=O)[C@@H]1OC(=O)[C@H]2O[C@]23[C@@]2(C)[C@H](CC[C@@]13C)[C@@]1(C)[C@@H](OC(C)=O)C[C@@H](OC(C)=O)C(C)(C)[C@@H]1C[C@@H]2O"
recordedmeasurement = 72.87

[[record]]
compound = "Cl.c1cncc([C@@H]2CCCCN2)c1 [ANABASINE HYDROCHLORIDE]"
recordedmeasurement = 91.54

[[record]]
compound = "C=C1C(N)CC2CC1C2(C)C (stereo not given)"
recordedmeasurement = 104.4

[[record]]
compound = "CCCCCCCCCc1ccc(O)cc1"
recordedmeasurement = 184.2

[[record]]
compound = "CC[C@H]1OC(=O)[C@H](C)C(=O)[C@H](C)[C@@H](O[C@@H]2O[C@H](C)C[C@H](N(C)C)[C@H]2O)[C@](C)(OC)C[C@@H](C)C(=O)[C@H](C)[C@H]2N(CCCCn3cnc(-c4cccnc4)c3)C(=O)O[C@]12C"
recordedmeasurement = 60.1

[[record]]
compound = "COc1c(CC(=O)c2cc3c(cc2O)OC(C)(C)C(O)C3)ccc2c1C=CC(C)(C)O2 (stereo not given) [DIHYDROMUNDULETONE]"
recordedmeasurement = 58.7

[[record]]
compound = "COC(=O)[C@]1(C)CC[C@]2(C)CC[C@]3(C)C4=CC=C5C(=CC(=O)C(O)=C5C)[C@]4(C)CC[C@@]3(C)[C@@H]2C1"
recordedmeasurement = 99.45

[[record]]
compound = "O=C(CCCN1CCN(c2ccccn2)CC1)c1ccc(F)cc1"
recordedmeasurement = 108.2

[[record]]
compound = "COc1cc([C@@H]2c3cc4c(cc3[C@H](O)[C@H]3COC(=O)[C@H]23)OCO4)cc(OC)c1OC"
recordedmeasurement = 95.19

[[record]]
compound = "C1CCC(C(CC2CCCCN2)C2CCCCC2)CC1.O=C(O)/C=C\\C(=O)O (stereo not given) [PERHEXILINE MALEATE]"
recordedmeasurement = 92.29

[[record]]
compound = "CNCCC(Oc1ccc(C(F)(F)F)cc1)c1ccccc1 (stereo not given)"
recordedmeasurement = 77.22

[[record]]
compound = "CN1CCN(C2=Nc3ccccc3Oc3ccc(Cl)cc32)CC1.O=C(O)CCC(=O)O [LOXAPINE SUCCINATE]"
recordedmeasurement = 117.8

[[record]]
compound = "Cc1ccc(C(=O)C(C)CN2CCCCC2)cc1.Cl (stereo not given) [TOLPERISONE HYDROCHLORIDE]"
recordedmeasurement = 112.7

[[record]]
compound = "C[C@]12CCC(=O)C=C1CCc1ccc(O)cc12"
recordedmeasurement = 82.18

[[record]]
compound = "Cc1cn([C@H]2C[C@H](N=[N+]=[N-])[C@@H](CO)O2)c(=O)[nH]c1=O"
recordedmeasurement = 95.75

[[record]]
compound = "CC(C)CC(N(C)C)C1(c2ccc(Cl)cc2)CCC1.Cl (stereo not given)"
recordedmeasurement = 113.9

[[record]]
compound = "Cl.Cl.Fc1ccc([C@@H]2CCNC[C@H]2COc2ccc3c(c2)OCO3)cc1.Fc1ccc([C@@H]2CCNC[C@H]2COc2ccc3c(c2)OCO3)cc1.O [PAROXETINE HYDROCHLORIDE]"
recordedmeasurement = 76.07

[[record]]
compound = "CC(=O)OCC(=O)[C@@]1(O)CC[C@H]2[C@@H]3CCC4=CC(=O)CC[C@]4(C)[C@@]3(F)[C@@H](O)C[C@@]21C [FLUDROCORTISONE ACETATE]"
recordedmeasurement = 71.2

[[record]]
compound = "COC(=O)[C@H]1[C@H]2C[C@H]3c4[nH]c5cc(OC)ccc5c4CCN3C[C@H]2C[C@@H](OC(=O)c2cc(OC)c(OC)c(OC)c2)[C@@H]1OC"
recordedmeasurement = 42.22

[[record]]
compound = "C[N+](C)(C)CCOC(N)=O.[Cl-]"
recordedmeasurement = 105.7

[[record]]
compound = "Cc1ccc(C(C)C)c(O)c1C(=O)O"
recordedmeasurement = 82.08

[[record]]
compound = "O=c1cccc2n1C[C@@H]1CNC[C@H]2C1"
recordedmeasurement = 106.2

[[record]]
compound = "COc1c(O)cc2c(c1O)[C@@H]1O[C@H](CO)[C@@H](O)[C@H](O)[C@H]1OC2=O"
recordedmeasurement = 94.52

[[record]]
compound = "C[N+]1(C)[C@@H]2C[C@@H](OC(=O)[C@H](CO)c3ccccc3)C[C@H]1[C@@H]1O[C@@H]12.[Br-] [METHSCOPOLAMINE BROMIDE]"
recordedmeasurement = 92.61

[[record]]
compound = "CN1C[C@H](CNC(=O)OCc2ccccc2)C[C@@H]2c3cccc4c3c(cn4C)C[C@H]21"
recordedmeasurement = 93.79

